This collection of values is drawn from PubChem BioAssay (NCI).

# Test system: NCI-H226 lung
# METHOD: NCI tumour cell line growth inhibition, 48 h
Where a SMILES comes first, the peptide text is derived from it. [ ]: non-standard residue; d: D form. The star is where a group is joined. dTle = CC(C)(C)[C@@H](N)C(=O)O; 4Abz = Nc1ccc(C(=O)O)cc1; NHOH = ON*
MEASURE NAME: GI50

Would you mind telling me what GI50 value was observed for [N-]=[N+]=NCCCn1c2c(c3ccc([N+](=O)[O-])cc3c1=O)C(=O)c1cc(F)ccc1-2 ? 2.26 µM

Would you mind telling me what GI50 value was observed for CN1CCN(c2ccc(NC(=O)c3cncnc3Nc3ccc(OCc4ccccn4)c(Cl)c3)cc2)CC1 ? 5.42 µM

Would you mind telling me what GI50 value was observed for CCc1ccc(C(=Nc2ccc(N(C)C(=O)CN3CCN(C)CC3)cc2)c2c(O)[nH]c3ccc(C(=O)OC)cc23)cc1 ? 0.977 µM

Would you mind telling me what GI50 value was observed for O=C1c2ccccc2-c2c1c1c(O)cccc1n2Cc1ccccn1 ? 12.8 µM

Would you mind telling me what GI50 value was observed for Cc1cc(N2CCOCC2)nc(N(CCCNc2ccnc3cc(Cl)ccc23)Cc2ccco2)n1 ? 12 µM

Would you mind telling me what GI50 value was observed for NS(=O)(=O)CC1CC[CH-]CC1.[Cl-].[Cl-].[Cl-].[Cl-].[Cl-].[Sb+5].c1ccncc1 ? > 100 µM

Would you mind telling me what GI50 value was observed for O=C(Nc1cccc(Cl)c1)c1cccc(NC2=C(Cl)C(=O)N(Cc3ccccc3)C2=O)c1 ? 22.4 µM

Turning to the following molecule.
Would you mind telling me what GI50 value was observed for C[C@@H](NC(=O)[C@H](NC(=O)[C@@H]1CCCN1C(=O)CNC(=O)c1ccc(N)cc1)C(C)(C)C)C(=O)NO (H-[4Abz]GP[dTle][dA]-{NHOH}) ? > 100 µM

* * *

# Test system: RXF 393 renal
# METHOD: NCI tumour cell line growth inhibition, 48 h
MEASURE NAME: TGI

Reference set (5 entries):
Would you mind telling me what TGI value was observed for COC(=O)C(C(=O)C(=O)Nc1cccc([N+](=O)[O-])c1)c1nc2ccc([N+](=O)[O-])cc2[nH]c1=O (stereo unspecified) ? > 100 µM

Would you mind telling me what TGI value was observed for CCc1cc(CCC(=O)Nc2ccccc2[N+](=O)[O-])[nH]c(=S)n1 ? > 100 µM

Would you mind telling me what TGI value was observed for COc1cc(C(=O)CC2OC(=O)C(Cl)=C2Cl)ccc1Cl (stereo unspecified) ? > 100 µM

Would you mind telling me what TGI value was observed for COc1cc2c(cc1O)C1(Cc3ccc4c(c3C1=O)OCO4)N(C)CC2 (stereo unspecified) ? > 100 µM

Would you mind telling me what TGI value was observed for O=[N+]([O-])c1cc(C(F)(F)F)ccc1Sc1ccc(C(F)(F)F)cc1[N+](=O)[O-] ? > 100 µM

Turning to the following compound.
Would you mind telling me what TGI value was observed for O=C(c1ccccc1)c1nc2ccc(Cl)cc2c2c1CCCO2 ? > 100 µM

* * *

Overview of recorded TGI for various compounds
# Test system: SR leukemia
# METHOD: NCI tumour cell line growth inhibition, 48 h
*1 amine or outer side, *2 acyl side, *3 side chain or, on linkers, in order; H or OH if unused. Where a SMILES comes first, the peptide text is derived from it. Bridges are numbered along the chain shown (N, C = ends). [ ]: non-standard residue; d: D form. The star is where a group is joined. X34 = O=C(C(CCCCNO[*:3])N[*:1])[*:2]; Fmoc = O=C(OCC1c2ccccc2-c2ccccc21)*

Would you mind telling me what TGI value was observed for CC(=O)O[C@H](C[C@H](C(C)C)N(C)C(=O)[C@@H](NC(=O)[C@H]1CCCN1C)C(C)C)c1nc(C(=O)N[C@@H](Cc2ccccc2)C[C@H](C)C(=O)O)c(C)s1 ? > 16.7 µM

Would you mind telling me what TGI value was observed for CCC(=O)Nc1ccc(C)c(-c2ccc(C(=O)NCC3CC3)cc2)c1 ? > 25 µM

Would you mind telling me what TGI value was observed for CCCCCCCCCCCCCCCCOP(=O)(O)OCC(NC(C)=O)C(=O)O (configuration not stated) ? > 100 µM

Would you mind telling me what TGI value was observed for NC(=O)CNC(=O)C1CCCN1C(=O)C1CCCCNOC(=O)CCC(NC(=O)OCC2c3ccccc3-c3ccccc32)C(=O)NC(Cc2c[nH]c3ccccc23)C(=O)N1 (configuration not stated) (Fmoc-EW[X34]PG-NH2; ester 1-3; configuration not given here) ? > 100 µM

Would you mind telling me what TGI value was observed for CC(=O)OCC(C)(COC(C)=O)N1C(=O)C2C3c4ccccc4C(c4ccccc43)C2C1=O (configuration not stated) ? > 100 µM

Would you mind telling me what TGI value was observed for CCOC(OCC)N1C(=O)C2(C(OCC)OCC)CC3C(OC(=O)N3N)c3cccc1c32 (configuration not stated) ? > 100 µM

Would you mind telling me what TGI value was observed for NC(=O)SCCC(N)C(=O)O (configuration not stated) ? > 100 µM

Would you mind telling me what TGI value was observed for CCCCCCCCCCCCCCCCCCNc1nc(=O)n(C2CC(O)C(COP(=O)(O)OCC3OC(n4ccc(N)nc4=O)C(O)C3O)O2)cc1F (configuration not stated) ? > 100 µM

Continuing:
Would you mind telling me what TGI value was observed for CCNC12CCC(C1)C(C)(C)C2=O (configuration not stated) ? > 100 µM

Would you mind telling me what TGI value was observed for COc1ccc(NC(C)=O)c(C(O)CCNC(C)=O)c1 (configuration not stated) ? > 100 µM

Would you mind telling me what TGI value was observed for CN(C(=O)C1=CCC2(CC1)OCCO2)c1ccccc1I ? > 100 µM

Would you mind telling me what TGI value was observed for Cc1ccc(NS(=O)(=O)c2cccc(C#N)c2)c2[nH]cc(C#N)c12 ? > 100 µM

* * *

# System: MOLT-4 leukemia
# METHOD: NCI tumour cell line growth inhibition, 48 h
MEASURE NAME: TGI

Reference set (3 entries):
Would you mind telling me what TGI value was observed for O=C(O)CCC(N=NNc1ccc(-c2nc3ccccc3[nH]2)cc1)C(=O)O (centres undefined) ? > 100 µM

Would you mind telling me what TGI value was observed for COc1ccc2oc(C(=O)O)c3c2c1CCC3CCC(=O)O (centres undefined) ? > 100 µM

Would you mind telling me what TGI value was observed for O=C(Nc1cccc(Cl)c1)c1cccc(NC2=C(Cl)C(=O)N(Cc3ccccc3)C2=O)c1 ? > 100 µM

Turning to the following compound.
Would you mind telling me what TGI value was observed for CSc1nc2c(c(N3CCOCC3)n1)C(O)n1c(nc3ccccc31)S2 (centres undefined) ? > 100 µM

* * *

# Tested on: SNB-75 CNS
# METHOD: NCI tumour cell line growth inhibition, 48 h
Overview of recorded TGI for various molecules

Short answer please: TGI, SNB-75 CNS, entry O=C1C2CCN(CC2)C1(CO)CO > 81.8 µM

Short answer please: TGI, SNB-75 CNS, entry CCOC(=O)c1cnc2sc3ccc4ccccc4c3n2c1=O > 100 µM

Turning to the following molecule.
Short answer please: TGI, SNB-75 CNS, entry Cc1ccc(C(=O)/C=C/c2cccc([N+](=O)[O-])c2)cc1 > 92.9 µM

* * *

# Tested on: OVCAR-5 ovarian
# METHOD: NCI tumour cell line growth inhibition, 48 h
Overview of recorded TGI for various compounds
Numbers only; they are read as µM.

Reference set (4 entries):
Would you mind telling me what TGI value was observed for CN1CCN(c2ccc(NC(=O)c3cncnc3Nc3ccc(OCc4ccccn4)c(Cl)c3)cc2)CC1 ? 9.11

Would you mind telling me what TGI value was observed for C=C1C(=O)O[C@H]2[C@H]1CC/C(COC(=O)C(C)c1ccc(CC(C)C)cc1)=C\CC[C@@]1(C)O[C@@H]21 (stereo not given in full) ? 3.46

Would you mind telling me what TGI value was observed for CC1=C(O)/C(=C/C(C)CCC/C(C)=C/C=C/C(C)CCCc2ccoc2)OC1=O (stereo not given) ? 69.3

Would you mind telling me what TGI value was observed for COc1ccc(/C=C2\CCC(CCN(C)C)(C3=CCCC3)C2=O)cc1Br (stereo not given) ? 27.1

Turning to the following compound.
Would you mind telling me what TGI value was observed for CC1(C)NCCC[C@]2(C)[C@H]3CC[C@@H]4[C@H]5[C@H](C(=O)/C=C/c6ccccn6)CC[C@]5(CO)CC[C@@]4(C)[C@]3(C)CC[C@@H]12 ? 16.9

* * *

Overview of recorded TGI for various compounds
# Tested on: SNB-19 CNS
# METHOD: NCI tumour cell line growth inhibition, 48 h

Would you mind telling me what TGI value was observed for O=C1C=CC(=O)N1c1cccc(N2C(=O)C=CC2=O)c1 ? 35.8 µM

Continuing:
Would you mind telling me what TGI value was observed for COc1ccc2oc(C(=O)O)c3c2c1CCC3CCC(=O)O (centres undefined) ? > 100 µM

Would you mind telling me what TGI value was observed for O=NNc1ccc(Sc2ccc(NN=O)cn2)nc1 ? > 100 µM

Would you mind telling me what TGI value was observed for N#CC(C#N)N=Nc1ccc(-c2nc3ccccc3o2)cc1 ? 60 µM

Would you mind telling me what TGI value was observed for COc1ccc(/C=C2\CCC(CCN(C)C)(C3=CCCC3)C2=O)cc1Br (centres undefined) ? 22.1 µM
